Biological target: Melanocortin receptor 4 (Mus musculus, UniProt P56450)
Sequence (P56450 whole entry): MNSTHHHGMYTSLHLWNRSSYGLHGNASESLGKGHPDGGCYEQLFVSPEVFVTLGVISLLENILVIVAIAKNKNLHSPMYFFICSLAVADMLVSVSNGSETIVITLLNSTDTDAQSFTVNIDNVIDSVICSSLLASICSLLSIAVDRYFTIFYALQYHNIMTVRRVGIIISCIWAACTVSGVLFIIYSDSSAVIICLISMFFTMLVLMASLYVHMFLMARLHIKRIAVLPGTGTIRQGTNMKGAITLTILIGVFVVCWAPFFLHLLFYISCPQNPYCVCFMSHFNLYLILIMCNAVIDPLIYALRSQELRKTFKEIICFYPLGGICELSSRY
Test: Activity in mouse melanocortin-4 receptor stably expressed in HEK293 cells
Assay type: cell-based
Settings: hek293
Quantity Name: EC50 (nM)
Give bare numbers, in nM.

Field request: EC50 | item: CC(=O)N[C@@H](Cc1cnc[nH]1)C(=O)NC(Cc1ccccc1)C(=O)N[C@@H](CCCNC(=N)N)C(=O)NC(Cc1c[nH]c2ccccc12)C(N)=O (stereo in doubt)
17.2

====

Molecular target: Melanocyte-stimulating hormone receptor (Mus musculus)
Sequence (Q01727 whole entry): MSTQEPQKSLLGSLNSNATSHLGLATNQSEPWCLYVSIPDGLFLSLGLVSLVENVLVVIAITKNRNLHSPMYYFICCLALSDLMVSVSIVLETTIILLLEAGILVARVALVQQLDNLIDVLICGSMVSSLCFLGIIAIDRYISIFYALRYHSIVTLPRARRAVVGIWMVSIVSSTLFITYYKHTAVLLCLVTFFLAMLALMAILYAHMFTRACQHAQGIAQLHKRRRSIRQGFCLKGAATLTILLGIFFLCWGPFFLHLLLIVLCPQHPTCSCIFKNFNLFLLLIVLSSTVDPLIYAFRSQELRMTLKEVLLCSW
Test: Activity in mouse melanocortin-1 receptor stably expressed in HEK293 cells
For each record, write down the corresponding pEC50.
Give bare numbers, as −log10 of the molar value.

{"Compound": "CC(=O)N[C@@H](Cc1cnc[nH]1)C(=O)NC(Cc1ccccc1)C(=O)N[C@@H](CCCNC(=N)N)C(=O)N[C@H](Cc1cccc2ccccc12)C(N)=O (stereo in doubt)", "pEC50": 6.14}
{"Compound": "CC(=O)N[C@@H](Cc1cnc[nH]1)C(=O)NC(Cc1ccccc1)C(=O)N[C@@H](CCCNC(=N)N)C(=O)N[C@H](Cc1ccncc1)C(N)=O (stereo in doubt)", "pEC50": 5.65}

Now examine the next entry.
Please look up its pEC50: CC(=O)N[C@@H](Cc1c[nH]cn1)C(=O)N[C@H](Cc1ccccc1)C(=O)N[C@@H](CCCN=C(N)N)C(=O)N[C@@]1(C(N)=O)CCc2ccccc2C1 (stereo in doubt; 20)
6.15
